I'd appreciate it if you could supply pIC50 values for the items below.
tested on: ALPK1-dependent NFκB reporter gene activation in HEK293 cells stably expressing an NF-kB reporter (G9 cells); experiment: NFκB gene reporter alkaline phosphatase assay; type: cell-based; settings: Homo sapiens, HEK293; read-out: NFkB assay IC50
One number for each entry, as −log10 of the molar value.

Completed entries (count: 10):
compound: CC(C)(c1ccc(Br)cc1)c1csc(NC(=O)NCc2cc(N3CCNCC3)ncn2)n1
pIC50: 5.89

compound: COCCNC(=O)Nc1nc(C(C)(C)c2ccc(OC)cc2)cs1
pIC50: 6.03

compound: C#CC(C)(c1ccc(Cl)cc1)c1csc(NC(=O)N2CCC(N)CC2)n1 (centres unmarked)
pIC50: 5.54

compound: COc1ccc(C(C)(C)c2csc(NC(=O)NC3(c4ccc(N5CCNCC5)cc4)CC3)n2)cc1
pIC50: 5.73

compound: COc1ccc(C(C)(C)c2csc(NC(=O)NCCCN3CCOCC3)n2)cc1
pIC50: 5.29

compound: COc1ccc(C(C)(C)c2csc(NC(=O)NCc3cnc(N4CCNC(=O)C4)c(F)c3)n2)cc1
pIC50: 5.69

compound: C#CC(C)(c1ccc(Cl)cc1)c1csc(NC(=O)NO)n1 (centres unmarked)
pIC50: 6.14

compound: Cc1cc(N2CCNCC2)ccc1CNC(=O)Nc1nc(C(C)(C)c2ccc(Br)cc2)cs1
pIC50: 6.54

compound: C#C[C@](C)(c1ccc(Cl)cc1)c1csc(NC(=O)NC[C@@H](O)CO)n1
pIC50: 5.65

compound: COc1ccc(C(C)(C)c2csc(NC(=O)NCCS(C)(=O)=O)n2)cc1
pIC50: 5.53

Below are some compounds; for each one, tell me its pIC50.
1. COc1ccc(C(C)(C)c2csc(NC(=O)NCCCN(C)C)n2)cc1
2. C#C[C@](C)(c1ccc(Cl)cc1)c1csc(NC(=O)NCCC(C)(C)O)n1

Outgoing:
[5.35, 5.93]

Below are some compounds; for each one, tell me its pIC50.
1. COc1ccc(C(C)(C)c2csc(NC(=O)NCc3ccc(NCCO)nc3)n2)cc1
2. O=C(NCc1cc(F)c(N2CCNCC2)c(F)c1)Nc1nc(C2(c3ccc(Br)cc3)CCCC2)cs1
3. C#C[C@](C)(c1ccc(Cl)cc1)c1csc(NC(=O)NC(C)(C)CO)n1 (stereo in doubt)
4. CCNC(=O)Nc1nc(C(C)(C)c2ccc(Br)cc2)cs1
5. CC(C)(c1ccc(Br)cc1)c1csc(NC(=O)NCc2cncnc2)n1

Outgoing:
1: 6.06; 2: 5.36; 3: 5.09; 4: 5.47; 5: 5.69

* * *

molecular target: ALPK1 (Homo sapiens (Human)); assay: ALPK1 in vitro kinase assay (HTRF of TIFA phosphorylation); assay type: biochemical
Sequence (Q96QP1 whole entry): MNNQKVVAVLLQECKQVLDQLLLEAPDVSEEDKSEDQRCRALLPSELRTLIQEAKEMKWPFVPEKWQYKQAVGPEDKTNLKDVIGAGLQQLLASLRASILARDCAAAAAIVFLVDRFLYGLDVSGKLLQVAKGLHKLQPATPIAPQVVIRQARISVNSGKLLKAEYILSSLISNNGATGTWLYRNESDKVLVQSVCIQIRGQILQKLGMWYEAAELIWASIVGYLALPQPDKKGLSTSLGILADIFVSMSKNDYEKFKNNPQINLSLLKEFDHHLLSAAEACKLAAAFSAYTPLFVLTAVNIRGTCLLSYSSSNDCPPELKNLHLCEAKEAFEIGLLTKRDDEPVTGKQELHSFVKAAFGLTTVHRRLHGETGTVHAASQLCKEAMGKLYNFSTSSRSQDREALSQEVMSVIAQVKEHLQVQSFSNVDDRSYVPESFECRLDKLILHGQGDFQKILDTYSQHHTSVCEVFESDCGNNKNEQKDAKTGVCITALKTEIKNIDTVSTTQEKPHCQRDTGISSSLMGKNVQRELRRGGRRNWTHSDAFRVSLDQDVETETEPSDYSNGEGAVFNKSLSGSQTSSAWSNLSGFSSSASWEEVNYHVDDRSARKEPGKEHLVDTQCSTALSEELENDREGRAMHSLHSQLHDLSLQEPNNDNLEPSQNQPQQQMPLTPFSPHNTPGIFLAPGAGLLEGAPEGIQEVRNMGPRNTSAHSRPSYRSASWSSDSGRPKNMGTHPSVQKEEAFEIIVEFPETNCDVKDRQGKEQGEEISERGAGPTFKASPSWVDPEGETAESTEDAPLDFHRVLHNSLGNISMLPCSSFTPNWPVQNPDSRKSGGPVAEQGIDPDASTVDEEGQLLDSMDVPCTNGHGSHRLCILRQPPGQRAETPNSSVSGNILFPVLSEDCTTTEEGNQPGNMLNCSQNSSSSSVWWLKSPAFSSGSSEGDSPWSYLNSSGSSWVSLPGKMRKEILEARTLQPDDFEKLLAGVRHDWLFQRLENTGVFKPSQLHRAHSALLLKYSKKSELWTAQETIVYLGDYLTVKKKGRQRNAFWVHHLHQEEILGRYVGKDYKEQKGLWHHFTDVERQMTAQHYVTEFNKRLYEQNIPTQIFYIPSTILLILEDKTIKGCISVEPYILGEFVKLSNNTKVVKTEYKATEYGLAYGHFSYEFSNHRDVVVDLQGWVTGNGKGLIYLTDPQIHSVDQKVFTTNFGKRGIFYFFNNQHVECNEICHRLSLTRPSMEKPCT
I'd appreciate it if you could supply IC50 values for the items below.
Give bare numbers, in nM.

Completed entries (count: 3):
molecule: CC(C)(c1ccc(Cl)cc1)c1csc(NC(=O)NCc2cnc(N3CCNCC3)nc2)n1 [Example A084]
result-units: nM
IC50: 22
//
molecule: CC1CN(c2ccc(CNC(=O)Nc3nc(C(C)(C)c4ccc(Br)cc4)cs3)cc2)CCN1 (centres unmarked) [Example A194]
result-units: nM
IC50: 172
//
molecule: CC(NC(=O)Nc1nc(C(C)(C)c2ccc(Br)cc2)cs1)c1cc(F)c(N2CCNCC2)c(F)c1 (centres unmarked) [Example A003]
result-units: nM
IC50: 45

Below are some molecules; for each one, tell me its IC50.
1. CCOc1ccc(C(C)(C)c2csc(NC(=O)NCc3cnc(N4CCNCC4)nc3)n2)cc1 [Example A087]
2. COc1ccc(C(C)(C)c2csc(NC(=O)NCc3cc(F)c(N4CCC(N)C4)c(F)c3)n2)cc1 (centres unmarked) [Example A201]

Outgoing:
[89, 25]

The values you see were collected from patent US20240109853A1.
